assay: Inhibition of NF-kappaB-mediated transcription in human HepG cells
Assay type: cell-based
measured.metric: pIC50
Just the number, please; pIC50 means minus log10 of the concentration in mol/L.

Here's what some known entries look like.
COc1cc2c3c(c4cc(OC)c(OC)cc4c2cc1OC)CN1CCC[C@@H]1C3 [TYLOPHORINE]: 6.50
COc1ccc2c3c(c4cc(OC)c(OC)cc4c2c1)CC1CCCCN1C3 (racemic): 8.85
COc1cc2c3c(c4cc(OC)c(OC)cc4c2cc1OC)CN1CCC[C@H]1C3 [(S)-TYLOPHORINE]: 7.39
COc1ccc2c(CN3CCCC[C@H]3CO)cc3cc4c(cc3c2c1)OCO4: 4.99
COc1ccc2cc(C[C@H]3CCCCN3)c3cc(OC)c(OC)cc3c2c1: 5.66

Moving on to another compound below.
Challenge: State the recorded pIC50 for this entry: "COc1ccc2c3c(c4cc5c(cc4c2c1)OCO5)C[C@H]1CCCN1C3"
Response given: 5.91

###

assay: Inhibition of NF-kappaB-mediated transcription in human HepG cells
Format: cell-based
So basically: is IC50 under 20 µM? Then 1.0. Not under? Then 0.0.

Field: example entries. Status: answers known.
COc1ccc2c(CN3CCC[C@H]3CO)cc3cc4c(cc3c2c1)OCO4: 0.0
COc1ccc2c(CN3CCC[C@H]3C(=O)O)cc3cc4c(cc3c2c1)OCO4: 0.0

Challenge: Answer whether the compound COc1ccc2c3c(c4cc(OC)c(OC)cc4c2c1)C[C@H]1CCCN1C3 [(-)-ANTOFINE] has IC50 strictly less than 20 µM
Response given: 1.0

Challenge: Quick one: "COc1ccc2c(CN3CCCC[C@H]3C(=O)O)cc3cc4c(cc3c2c1)OCO4"
Response given: 1.0

Challenge: Quick one: "COc1ccc2c(CNCCCCCO)cc3cc4c(cc3c2c1)OCO4"
Response given: 1.0
